Target: Angiotensin-converting enzyme (Oryctolagus cuniculus)
Sequence (whole entry): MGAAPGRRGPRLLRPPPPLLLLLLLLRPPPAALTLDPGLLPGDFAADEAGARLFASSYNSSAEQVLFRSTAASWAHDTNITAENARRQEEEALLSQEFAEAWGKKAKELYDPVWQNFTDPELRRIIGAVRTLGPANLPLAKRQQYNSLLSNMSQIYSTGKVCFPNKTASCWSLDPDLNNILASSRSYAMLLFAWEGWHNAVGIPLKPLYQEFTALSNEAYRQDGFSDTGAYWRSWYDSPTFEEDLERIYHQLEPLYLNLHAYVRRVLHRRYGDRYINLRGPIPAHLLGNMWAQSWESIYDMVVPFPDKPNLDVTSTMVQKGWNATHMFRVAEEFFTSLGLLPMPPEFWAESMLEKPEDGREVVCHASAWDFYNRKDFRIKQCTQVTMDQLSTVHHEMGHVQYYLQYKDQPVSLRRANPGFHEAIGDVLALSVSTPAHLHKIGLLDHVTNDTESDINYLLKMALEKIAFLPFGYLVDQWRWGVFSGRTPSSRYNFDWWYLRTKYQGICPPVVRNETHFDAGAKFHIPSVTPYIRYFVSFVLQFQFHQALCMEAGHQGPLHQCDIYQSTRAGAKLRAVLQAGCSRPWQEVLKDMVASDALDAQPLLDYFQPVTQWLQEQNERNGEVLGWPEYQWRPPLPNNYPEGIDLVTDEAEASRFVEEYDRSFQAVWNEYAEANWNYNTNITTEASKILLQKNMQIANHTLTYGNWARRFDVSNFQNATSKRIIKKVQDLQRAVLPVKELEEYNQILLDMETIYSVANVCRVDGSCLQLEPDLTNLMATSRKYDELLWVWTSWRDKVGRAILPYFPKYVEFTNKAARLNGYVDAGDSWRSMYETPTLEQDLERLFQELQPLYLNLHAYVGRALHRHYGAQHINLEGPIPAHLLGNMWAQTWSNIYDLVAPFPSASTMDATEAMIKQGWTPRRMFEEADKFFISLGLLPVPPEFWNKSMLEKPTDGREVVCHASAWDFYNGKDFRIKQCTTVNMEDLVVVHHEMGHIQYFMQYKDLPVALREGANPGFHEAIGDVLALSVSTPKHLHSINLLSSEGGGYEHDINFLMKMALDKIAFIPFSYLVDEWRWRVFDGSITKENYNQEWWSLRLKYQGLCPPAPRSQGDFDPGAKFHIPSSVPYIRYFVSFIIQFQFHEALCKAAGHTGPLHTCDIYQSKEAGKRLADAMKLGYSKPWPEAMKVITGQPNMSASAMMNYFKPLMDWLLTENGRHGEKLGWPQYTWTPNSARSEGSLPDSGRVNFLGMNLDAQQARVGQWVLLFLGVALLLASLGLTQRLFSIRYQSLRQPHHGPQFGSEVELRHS
Test: In vitro stability of compound (0.5 uM) to inhibit NAcSDKP hydrolysis by rabbit lung Angiotensin I converting enzyme after 30 minutes incubation
Peptide text beside a SMILES is read from it.
property_measured: Residual peptide (%)
Enter your answer as a number in %; do not include the unit.

Reference set, count: 3
CC(=O)N[C@@H](CO)C(=O)N[C@H](CN[C@@H](CCCCN)C(=O)N1CCC[C@H]1C(=O)O)CC(=O)O    46
CC(=O)N[C@@H](CO)CN[C@@H](CC(=O)O)C(=O)N[C@@H](CCCCN)C(=O)N1CCC[C@H]1C(=O)O    46.9
CC(=O)N[C@@H](CO)C(=O)N[C@@H](CC(=O)O)C(=O)N[C@@H](CCCCN)CN1CCC[C@H]1C(=O)O    47.3

Could you now look at the following compound, please?
Can you look up the measured Residual peptide of CC(=O)N[C@@H](CO)C(=O)N[C@@H](CC(=O)O)C(=O)N[C@@H](CCCCN)C(=O)N1CCC[C@H]1C(N)=O (Ac-SDKP-NH2) for me?
46

Data origin, for the record: ChEMBL document CHEMBL1130250
